Property: protein stability index; scope: individual variants
B1: CHMP4C (parent)
chain: SSKSRAAPSPQEALVRLRETEEML

- Variants of: B1
- ASSAY_PROCEDURE: protein stability index of a GFP-peptide fusion (GPS, HEK-293T) (PSI 1-6); higher = more stable;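 further: lentivirally expressed fusions sorted by FACS into six bins by GFP to DsRed ratio, PSI derived from sequencing read proportions per bin multiplied by bin number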
- CONDITION_SUMMARY: c terminus: a fixed tail appended
Please give the numeric answer without any surrounding text.

# count of solved cases: 2
SEQUENCE_DATA	protein stability index
HSKSRAAPSPQEALVRLRETEEML	1.97
SSKSRAAQSPQEALVRLRETEEML	1.95

Exam item: For the variant SSKSRAAPSPQEALVRLRYTEEML , what protein stability index is on record?
Marked response: 1.97
